System: HaCaT cells (human immortalized keratinocytes)
ASSAY PROCEDURE: cells
Type: cell-based
CONDITION: Homo sapiens; HaCaT; 24 h incubation, 6.3-100 μM, resazurin; mean ± SEM of 2 independent experiments (n = 8); read-out: IC50 ± SEM
PARAMETER: IC50 (µM)
Return type: number; implicit unit µM.

// recorded IC50 for CCCCCCCCCCCCCCCCn1cc[n+](C)c1 [[C16 M1Im][Br], 1-hexadecyl-3-methylimidazolium bromide, reference compound] : 6.27
